Source: patent US12692253B2

For each entry below, report its MIC value.
Tested on: E. coli (Ec)
Assay: Broth microdilution minimum inhibitory concentration (MIC), CLSI
Assay type: cell-based
Conditions: Escherichia coli, growth medium with sodium bicarbonate, read-out: E. coli + bicarb MIC
Procedure: A certified BSL-2 laboratory was used for testing. Compounds were evaluated using the broth microdilution minimum inhibitory concentration (MIC) and minimum bactericidal concentration (MBC) assays defined by Clinical and Laboratory Standards Institute (CLSI) in the M26-A guideline against S. aureus (Sa), E. coli (Ec), K. pneumoniae (Kp), A. baumannn (Ab), E. faecalis (Ef) and P. aeruginosa (Pa). […]

Give the reported MIC for this compound. CC(C)(N)C(=O)N1CCN(C(=O)Nc2ccn(-c3ccc(CNC45CCC(N)(CC4)C5)cc3)c(=O)n2)CC1 [Compound 168] < 8 µg/mL

Give the reported MIC for this compound. NCC1CCN(C(=O)Nc2ccn(-c3ccc(CN4C[C@@H]5[C@@H](N)[C@@H]5C4)cc3)c(=O)n2)CC1 [Compound 248] > 32 µg/mL

Give the reported MIC for this compound. CC(C)(N)C(=O)N1CCN(C(=O)Nc2ccn(-c3ccc(CCCN4C[C@@H]5[C@@H](N)[C@@H]5C4)cc3)c(=O)n2)CC1 [Compound 179] 8 to 32 µg/mL

Give the reported MIC for this compound. CC(Cc1ccc(-n2ccc(NC(=O)N3CCN(C(=O)C(C)(C)N)CC3)nc2=O)cc1)N1C[C@@H]2[C@H](C1)[C@H]2C(C)(C)N (stereo partly shown) [Compound 205] 8 to 32 µg/mL

Give the reported MIC for this compound. CC(C)[C@H](N)C(=O)N1CCN(C(=O)Nc2ccn(-c3ccc(CC(C)N4C[C@@H]5[C@@H](CN)[C@@H]5C4)cc3)c(=O)n2)CC1 (stereo partly shown) [Compound 223] < 8 µg/mL

Give the reported MIC for this compound. CCC(Cc1ccc(-n2ccc(NC(=O)N3CCN(C(=O)C(C)(C)N)CC3)nc2=O)cc1)N1CC2CCC(N)CC2C1 (stereo not shown) [Compound 218] < 8 µg/mL

Give the reported MIC for this compound. CC(Cc1ccc(-n2ccc(NC(=O)N3CCN(C(=O)C(C)(C)N)CC3)nc2=O)cc1)NCC1[C@H]2CNC[C@@H]12 (stereo partly shown) [Compound 204] < 8 µg/mL

Give the reported MIC for this compound. CC(C)(N)C(=O)N1CCN(C(=O)Nc2ccn(-c3ccc(CNC[C@@H]4[C@H]5CNC[C@@H]45)cc3)c(=O)n2)CC1 [Compound 190] < 8 µg/mL

Give the reported MIC for this compound. CCC(Cc1ccc(-n2ccc(NC(=O)N3CCN(C(=O)C(C)(C)N)CC3)nc2=O)cc1)N1CC2CCCC(N)C2C1 (stereo not shown) [Compound 219] < 8 µg/mL

Give the reported MIC for this compound. CC(C)(N)C(=O)N1CCN(C(=O)Nc2ccn(-c3ccc(OCCN4C[C@@H]5[C@@H](CN)[C@@H]5C4)cc3)c(=O)n2)CC1 [Compound 187] < 8 µg/mL

Give the reported MIC for this compound. NCCC1CCN(C(=O)Nc2ccn(-c3ccc(CN4C[C@@H]5[C@@H](N)[C@@H]5C4)cc3)c(=O)n2)CC1 [Compound 250] > 32 µg/mL

Give the reported MIC for this compound. CC(Cc1ccc(-n2ccc(NC(=O)N3CCN(C(=O)C(C)(C)NCS(=O)(=O)O)CC3)nc2=O)cc1)N1C[C@@H]2[C@@H](CNCS(=O)(=O)O)[C@@H]2C1 (stereo partly shown) [Compound 241] < 8 µg/mL

Give the reported MIC for this compound. CN(Cc1ccc(-n2ccc(NC(=O)N3CCN(C(=O)C(C)(C)N)CC3)nc2=O)cc1)C12CCC(N)(CC1)C2 [Compound 164] < 8 µg/mL
